Each recorded value in this set is attributed to PubChem BioAssay (Tox21).

TARGET_SYSTEM: Peroxisome proliferator-activated receptor gamma (Homo sapiens) (UniProt P37231)
Sequence (P37231 whole entry, looked up): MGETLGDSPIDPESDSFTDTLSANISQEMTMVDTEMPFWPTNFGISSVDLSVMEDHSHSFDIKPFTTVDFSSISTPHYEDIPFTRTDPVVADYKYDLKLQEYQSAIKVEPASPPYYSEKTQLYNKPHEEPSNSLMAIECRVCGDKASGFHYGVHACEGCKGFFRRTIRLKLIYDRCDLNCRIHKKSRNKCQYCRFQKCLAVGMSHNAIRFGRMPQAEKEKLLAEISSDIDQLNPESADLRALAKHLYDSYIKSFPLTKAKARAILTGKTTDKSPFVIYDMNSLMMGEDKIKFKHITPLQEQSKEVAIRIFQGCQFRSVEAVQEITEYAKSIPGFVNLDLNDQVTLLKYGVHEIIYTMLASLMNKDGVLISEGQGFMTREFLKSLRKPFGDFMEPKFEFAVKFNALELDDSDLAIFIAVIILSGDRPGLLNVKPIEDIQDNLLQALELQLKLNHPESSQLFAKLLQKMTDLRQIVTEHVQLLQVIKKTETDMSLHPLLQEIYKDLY
MEASUREMENT_PROTOCOL: qHTS assay to identify small molecule agonists of the peroxisome proliferator-activated receptor gamma (PPARg) signaling pathway (AID 743094)
SETTINGS: HEK293H PPARg-UAS-bla, beta-lactamase FRET ratio, 17 h; series mostly up to 57 µM
Inconclusive results are not listed. Activity calls are given as the source filed them. Calls come from the whole dose curve; as a rule, active = well fitted activation curve with a large enough effect in the signal ratio in the repeat runs (not every such curve was filed as active); inconclusive = weak or mixed curves, or effect the other way; inactive = no such curve, though single readings can be large or run the other way; the % refers to the signal ratio.
Reply using exactly one outcome from active, inactive

Solved cases (8 shown):
| COMPOUND | CLASS_ASSIGNMENT |
| --- | --- |
| CCCCCCCC/C=C/CCCOC(C)=O | inactive |
| Cc1cccc(Br)c1 | inactive |
| O=C(O)Cc1ccc(OCCNC[C@H](O)c2ccccc2)cc1 | inactive |
| CO[C@H]1C=CO[C@@]2(C)Oc3c(C)c(O)c4c(O)c(cc(O)c4c3C2=O)NC(=O)/C(C)=C\C=C/[C@H](C)[C@H](O)[C@@H](C)[C@@H](O)[C@@H](C)[C@H](OC(C)=O)[C@@H]1C | inactive |
| C=C1C(C)(C)[C@@]2(Cl)C(Cl)[C@]1(Cl)C(Cl)(Cl)C2(Cl)Cl (some centres not stated) | inactive |
| COc1cc(C(C)C)c2c(c1)S(=O)(=O)N(COc1cc(=O)n3cccc(OCCN4CCCCC4)c3n1)C2=O | inactive |
| Clc1ccc(C(Cn2ccnc2)OCc2c(Cl)cccc2Cl)c(Cl)c1 (configuration not stated) | inactive |
| O=C1OC(OC(=O)c2cccnc2Nc2cccc(C(F)(F)F)c2)c2ccccc21 (configuration not stated) | inactive |

Challenge: Dear all, I need the recorded test outcome for C=C(C)C(=O)OCCC[Si](Cl)(Cl)Cl , thank you.
Response given: inactive

Challenge: Which outcome was assigned to CCO[Si](CCCSSSSCCC[Si](OCC)(OCC)OCC)(OCC)OCC in this test?
Response given: inactive

Challenge: # outcome recorded in this test, key = CC(=O)Oc1ccc(C2(c3ccc(OC(C)=O)cc3)Oc3ccccc3NC2=O)cc1
Response given: inactive

Challenge: Hello, I am checking results. What call was entered for CCN(CC)CCOC(=O)C1(C2CCCCC2)CCCCC1 ?
Response given: inactive

Challenge: Hi, do you know how CCCCCCCCCCCC(=O)N(CC)CC came out in this test?
Response given: inactive

Challenge: Could you please tell me the result logged for O=C(Nc1ccc(Cl)cc1)Nc1ccc(Cl)c(C(F)(F)F)c1 in this assay?
Response given: inactive

Challenge: Outcome? SCCCCCCCCS
Response given: inactive

Challenge: How was C[C@@H]1CC[C@H]2C(C)(C)[C@H]3C[C@@]12CC[C@@]3(C)O classified in this test?
Response given: inactive

Challenge: What is the recorded call for this compound in the test? Cc1c(C(=O)O)cccc1[N+](=O)[O-]
Response given: inactive

Challenge: Call for entry C(=C/c1ccccc1)/c1ccccc1 :
Response given: inactive

Challenge: Each compound tested received a call. Report the one for C[C@]12CC[C@H]3C(=CCc4cc(O)ccc43)[C@@H]1CCC2=O .
Response given: inactive

Challenge: Hi, do you know how CC(=O)Oc1ccc(C2(c3ccc(OC(C)=O)cc3)C(=O)Nc3ccccc32)cc1 came out in this test?
Response given: inactive

Challenge: Name the outcome recorded for CC(COC(=O)c1ccccc1)OC(=O)c1ccccc1 (configuration not stated) in the assay.
Response given: inactive

Challenge: # outcome recorded in this test, key = CCN(CC)c1ccc(N)cc1
Response given: inactive

Challenge: How was Cc1cn[nH]c1 classified in this test?
Response given: inactive

Challenge: Lab log entry: C=CC(=C)CCC=C(C)C — outcome as called in the assay?
Response given: inactive

Challenge: // param item: O=C(O)CC(=O)O ; yields the recorded call
Response given: inactive

Challenge: Assay result, entry Cn1cnc2ncnc(N)c21 — outcome?
Response given: inactive

Challenge: What did this assay record as the result for O=C(O)CCCCCCC(=O)O ?
Response given: inactive

Challenge: What is the recorded call for this compound in the test? CCCCCCCC/C=C\CCCCCCCC(=O)N(C)CC(=O)O
Response given: active
